# assay.name: Haematology
# Assay type: in vivo, cynomolgus monkeys (Macaca fascicularis)
# condition.summary: females, d −8 (before dosing)
Ends that are not written are not given here.
reported.metric: MCH (pg)
# value in pg; strip the unit string

MCH reported for this sequence SVSEIQLLHDKGKHLASQERVEWLRKKLQDVHTA [PTS893] : 19.3

----------
# assay.name: Haematology
# Type: in vivo, cynomolgus monkeys (Macaca fascicularis)
# condition.summary: females, d 13
Ends that are not written are not given here.
reported.metric: RBC (T/l)
Express your answer in T/l, writing the number without its unit.

SVSEIQLLHDKGKHLASQERVEWLRKKLQDVHTA [PTS893] yielded RBC of 5.9

----------
# assay.name: Haematology
# Assay type: in vivo, cynomolgus monkeys (Macaca fascicularis)
# condition.summary: females, d 13
Ends that are not written are not given here.
reported.metric: HB (g/dL)
Output spec: scalar in g/dL, unitless text.

According to the records, this sequence SVSEIQLLHDKGKHLASQERVEWLRKKLQDVHTA [PTS893] displays HB of 11.3

Hey, just so you know, these numbers are from patent US20070099828A1.
